Provenance of the data: the supplement of paper PMC10567573

B1: TRIM29 (parent)
chain: RKCPVHGKTMELFCQTDQTCICYL

- Variants of: B1
- assay_explanation: protein stability index of a GFP-peptide fusion (GPS, HEK-293T) (PSI 1-6); higher = more stable;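 also: lentivirally expressed fusions sorted by FACS into six bins by GFP to DsRed ratio, PSI derived from sequencing read proportions per bin multiplied by bin number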
- experimental_parameters: c terminus: a fixed tail appended
measure_name: protein stability index

INSERT INTO measurements (mutation_string, measure_name, value_measured) VALUES
  ('Q15F', 'protein stability index', 3.06),
  ('T9H', 'protein stability index', 1.78),
  ('T19P', 'protein stability index', 2.35),
  ('C14I', 'protein stability index', 2.41),
  ('F13I', 'protein stability index', 2.89),
  ('T16C', 'protein stability index', 3.37),
  ('C20N', 'protein stability index', 3.24),
  ('L12C', 'protein stability index', 2.81),
  ('C22T', 'protein stability index', 2.16),
  ('D17Y', 'protein stability index', 2.92),
  ('Q18A', 'protein stability index', 1.73),
  ('C22G', 'protein stability index', 1.99),
  ('V5Y', 'protein stability index', 2.71),
  ('C3A', 'protein stability index', 3.58),
  ('M10V', 'protein stability index', 1.98),
  ('F13M', 'protein stability index', 3.16),
  ('C3Y', 'protein stability index', 1.9),
  ('R1S', 'protein stability index', 2.19),
  ('Y23A', 'protein stability index', 4.28),
  ('T19K', 'protein stability index', 2.44),
  ('T9G', 'protein stability index', 2.72),
  ('C14P', 'protein stability index', 2),
  ('K8N', 'protein stability index', 2.56),
  ('V5A', 'protein stability index', 1.72),
  ('C3Q', 'protein stability index', 2.64),
  ('T16E', 'protein stability index', 1.78),
  ('T19Q', 'protein stability index', 2.32),
  ('P4W', 'protein stability index', 2.91),
  ('L24K', 'protein stability index', 4.82),
  ('K8T', 'protein stability index', 2.52),
  ('P4N', 'protein stability index', 3.09),
  ('C22I', 'protein stability index', 2.81),
  ('G7M', 'protein stability index', 2.35),
  ('M10E', 'protein stability index', 1.46),
  ('T19A', 'protein stability index', 3.62),
  ('C22V', 'protein stability index', 2.9),
  ('I21H', 'protein stability index', 2.98),
  ('D17G', 'protein stability index', 2.73),
  ('C14E', 'protein stability index', 2.77),
  ('M10N', 'protein stability index', 2.14),
  ('C22Q', 'protein stability index', 2.02),
  ('M10Q', 'protein stability index', 1.87),
  ('Q18P', 'protein stability index', 2.7),
  ('Y23K', 'protein stability index', 4.52),
  ('E11S', 'protein stability index', 2.85),
  ('E11N', 'protein stability index', 2.55);
